Numbers sourced from patent US20180237497A1.

The reader will find reported koff values listed item by item below.
Biological target: T1, human IGF2^1-67 (mature insulin-like growth factor 2) (human, UniProt P01344 25-91, biotinylated (site not stated) where immobilised on the chip (Tables 1-4))
T1 construct: mature; also called mature IGF2; biotinylated IGF2
T1 sequence (P01344 25-91): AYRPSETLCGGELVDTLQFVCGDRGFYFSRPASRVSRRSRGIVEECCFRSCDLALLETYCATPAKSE
Experiment: SPR kinetic, biotin-IGF2 on chip, pH 7.4
Method: Final kinetic analysis of mutants by SPR was conducted using a Biacore T200 biosensor at 25° C. in either HBS-EP (10 mM HEPES pH 7.4, 150 mM NaCl, 3 mM EDTA, and 0.005% (v/v) surfactant P20) or MES-EP (20 mM MES pH 6.5, 150 mM NaCl, 3 mM EDTA, and 0.005% (v/v) surfactant P20) at a flow-rate of 40 μL min⁻¹. […] Steady state affinities were determined using the kinetic data, taking the response average at 5 seconds before injection end and for 5 seconds average. […]
All answers are understood in s⁻¹, so give the number only.

BINDER	koff [s⁻¹]
IGF2R domain 11^AB5 (receptor, His6-tagged soluble domain 11; also called 1542YAKGWG1547) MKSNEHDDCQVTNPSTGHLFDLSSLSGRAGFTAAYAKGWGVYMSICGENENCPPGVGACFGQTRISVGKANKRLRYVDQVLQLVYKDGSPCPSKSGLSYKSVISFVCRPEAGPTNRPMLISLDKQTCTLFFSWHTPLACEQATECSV	0.0208

Now, please, on to the next binder.
Noted for domain 11^AB5 P1597A (receptor, See m5) MKSNEHDDCQVTNPSTGHLFDLSSLSGRAGFTAAYAKGWGVYMSICGENENCPPGVGACFGQTRISVGKANKRLRYVDQVLQLVYKDGSACPSKSGLSYKSVISFVCRPEAGPTNRPMLISLDKQTCTLFFSWHTPLACEQATECSV : its koff reads 0.0174
